- assay remarks: method code SF-AS, from DOI: 10.1021/jm00294a001, PMID: 5116225
outcome measure: logP

Solved entries:
compound | logP
C=C1C(=O)OC2C1C(O)CC(C)C1CCC(=O)C12C (stereo not given) | 0.23
C=C1C(=O)OC2C=C(C)C3C(OC(C)=O)CC(O)C3CC12 (stereo not given) | 1.09

A: C=C1C(=O)O[C@@H]2/C=C(/C)C[C@H](O)/C=C(/C)CC[C@@H]12
B: C=CC12COC(=O)C(=C)C1C(OC(C)=O)C1C(=C)C(=O)OC1C2 (stereo not given)
From the recorded data, which exceeds the other in logP: A or B ? Mark your selection by writing its label.
A
(A: 1.23, B: 0.25)

A: C=C1C(=O)OC2C1C(OC(=O)C(C)=CC)CC(=C)C1C(O)C3OC3(C)C21O (stereo not given)
B: C=C1C(=O)O[C@H]2CC3=C[C@@H](C[C@@]4(C)O[C@@H]4[C@@H](O)[C@H]12)OC3=O
From the recorded data, which exceeds the other in logP: A or B ? Mark your selection by writing its label.
A

P: C=CC12COC(=O)C(=C)C1C1OC(=O)C(=C)C1C(OC(C)=O)C2 (stereo not given)
Q: C=C1C(=O)OC2C=C(C)C(OC(C)=O)CC(O)C(C)=CC(OC(=O)C(C)=CC)C12 (stereo not given)
Problem: Given the entries P and Q , determine which has the lower reported logP. Mark your selection by writing its label.
P
(P: 0.79, Q: 1.16)

A: C=C[C@@]12COC(=O)C(=C)[C@@H]1[C@H]1OC(=O)C(=C)[C@@H]1[C@@H](O)C2
B: C=C1C(=O)OC2C1CCC(C)C1C=CC(=O)C12C (stereo not given)
Problem: Given the entries A and B , determine which has the lower reported logP. Mark your selection by writing its label.
A
(A: 0.31, B: 1.03)

----------
- assay remarks: method code SF-AS, from DOI: 10.1021/jm00294a001, PMID: 5116225
outcome measure: logP

molecule | logP
C=C1C(=O)O[C@@H]2C[C@@H](C)[C@@H]3C=CC(=O)[C@@]3(C)[C@@H](O)[C@H]12 | 0.87
C=C1C(=O)OC2C1C(OC(=O)C(C)=CC)CC(O)(CCl)C1C(OC(C)=O)C=C(C)C21O (stereo not given) | 1.42
C=C1C(=O)O[C@H]2[C@H]1[C@@H](OC(=O)C=C(C)C)CC1=C[C@@H](C[C@@]3(C)O[C@H]23)OC1=O | 1.05
C=C1C(=O)OC2CC(C)=CCC(OC(C)=O)C(C)=CC(OC(C)=O)C12 (stereo not given) | 1.14
C=C1C(=O)OC2C1CCC(C)C1(O)C=CC(=O)C21C (stereo not given) | 0.77
